- assay method text: Pigments dispersion: wet point and flow point of ester oil
- Assay type: physicochemical
- test conditions: amount of ester oil needed to reach the wet point, grams per 100 g of pigment
parameter measured: Wp (g)
Kindly provide the numeric value in g only, without the unit symbol.

-- ask Param item = CCCCCCCCC(=O)OCC(COC(=O)CCCCCCCC)(COC(=O)CCCCCCCC)COC(=O)CCCCCCCC [Pentaerythritol tetrapelargonate] ; retrieve measured Wp.
-- reply 62.00

-- ask Param item = CC(C)CCCCCCOC(=O)CCCCCC(C)C [Isononyl Isononanoate, reference compound] ; retrieve measured Wp.
-- reply 50.00

-- ask Param item = CCCCCCCCC(=O)OCC(C)(C)COC(=O)CCCCCCCC [Neopentyl glycol dipelargonate] ; retrieve measured Wp.
-- reply 61.00

-- ask Param item = CCCCCCCCC(=O)OCC(COC(=O)CCCCCCCC)OC(=O)CCCCCCCC [Glycerol tripelargonate] ; retrieve measured Wp.
-- reply 60.00

====

I'd be grateful if you could share measured Fp for these entries.
- assay method text: Pigments dispersion: wet point and flow point of ester oil
- Format: physicochemical
- test conditions: amount of ester oil needed to reach the flow point, grams per 100 g of pigment
Kindly provide the numeric value in g only, without the unit symbol.

-- ask Param item = CCCCCCCCC(=O)OCC(COC(=O)CCCCCCCC)(COC(=O)CCCCCCCC)COC(=O)CCCCCCCC [Pentaerythritol tetrapelargonate] ; retrieve measured Fp.
-- reply 132.00

-- ask Param item = CC(C)CCCCCCOC(=O)CCCCCC(C)C [Isononyl Isononanoate, reference compound] ; retrieve measured Fp.
-- reply 145.00

-- ask Param item = CCCCCCCCC(=O)OCC(COC(=O)CCCCCCCC)OC(=O)CCCCCCCC [Glycerol tripelargonate] ; retrieve measured Fp.
-- reply 100.00

-- ask Param item = CCCCCCCCC(=O)OCC(C)(C)COC(=O)CCCCCCCC [Neopentyl glycol dipelargonate] ; retrieve measured Fp.
-- reply 166.00

====

- assay method text: UV filters dispersion: dispersibility of solid UV filter in ester oils
- Type: physicochemical
- Set-up: key: D=homogeneous dispersion; S=sediment deposit
- test conditions: 1% TiO2, storage 24 hours, 25° C.

compound | Filters dispersion t24 1%
CC(C)CCCCCCOC(=O)CCCCCC(C)C [Isononyl Isononanoate, reference compound] | S
CCCCCCCCC(=O)OCC(C)(C)COC(=O)CCCCCCCC [Neopentyl glycol dipelargonate] | S/D
CCCCCCCCC(=O)OCC(COC(=O)CCCCCCCC)OC(=O)CCCCCCCC [Glycerol tripelargonate] | D
CCCCCCCCC(=O)OCC(COC(=O)CCCCCCCC)(COC(=O)CCCCCCCC)COC(=O)CCCCCCCC [Pentaerythritol tetrapelargonate] | D

====

- assay method text: UV filters dispersion: dispersibility of solid UV filter in ester oils
- Format: physicochemical
- Design: key: D=homogeneous dispersion; S=sediment deposit
- test conditions: 10% TiO2, storage 0 hours, 25° C.

compound | Filters dispersion t0 10%
CCCCCCCCC(=O)OCC(C)(C)COC(=O)CCCCCCCC [Neopentyl glycol dipelargonate] | D
CCCCCCCCC(=O)OCC(COC(=O)CCCCCCCC)OC(=O)CCCCCCCC [Glycerol tripelargonate] | D
CC(C)CCCCCCOC(=O)CCCCCC(C)C [Isononyl Isononanoate, reference compound] | D
CCCCCCCCC(=O)OCC(COC(=O)CCCCCCCC)(COC(=O)CCCCCCCC)COC(=O)CCCCCCCC [Pentaerythritol tetrapelargonate] | D
